These measurements were taken from patent US7705003B2.

# key: entry, value: IC50
Biological target: 5-HT1A receptor (Rattus norvegicus, UniProt P19327)
Sequence (P19327 1-422): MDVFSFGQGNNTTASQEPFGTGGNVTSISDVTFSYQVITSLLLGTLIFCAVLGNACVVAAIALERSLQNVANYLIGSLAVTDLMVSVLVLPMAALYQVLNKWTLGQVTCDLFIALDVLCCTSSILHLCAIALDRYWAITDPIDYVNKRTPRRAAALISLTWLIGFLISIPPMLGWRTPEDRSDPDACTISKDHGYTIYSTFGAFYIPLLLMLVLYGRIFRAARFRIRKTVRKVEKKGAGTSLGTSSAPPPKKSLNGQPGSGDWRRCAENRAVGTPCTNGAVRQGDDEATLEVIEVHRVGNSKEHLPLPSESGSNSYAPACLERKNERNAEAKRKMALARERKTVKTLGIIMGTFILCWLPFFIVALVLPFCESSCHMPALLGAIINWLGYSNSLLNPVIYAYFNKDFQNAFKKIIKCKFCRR

{"chemical.smiles": "O=C(N[C@H]1CC[C@H](CCN2CCN(c3cccc4c3CCCC4)CC2)CC1)N1CCOCC1", "IC50": "1 to 20 nM"}
{"chemical.smiles": "CCN(CC)C(=O)N[C@H]1CC[C@H](CCN2CCN(c3cccc4c3CCC4)CC2)CC1", "IC50": "1 to 20 nM"}
{"chemical.smiles": "CN(C)C(=O)N[C@H]1CC[C@H](CCN2CCN(c3cccc4c3CCC4)CC2)CC1", "IC50": "1 to 20 nM"}

----------
experimental.readout: melting point

{"chemical.smiles": "O=C(N[C@H]1CC[C@H](CCN2CCN(c3cccc4c3CCCC4)CC2)CC1)N1CCOCC1", "result": "178 to 180 °C"}
{"chemical.smiles": "CN(C)C(=O)N[C@H]1CC[C@H](CCN2CCN(c3cccc4c3CCC4)CC2)CC1", "result": "150 to 152 °C"}
{"chemical.smiles": "CN(C)C(=O)N[C@H]1CC[C@H](CCN2CCN(c3cccc4c3CCCC4)CC2)CC1", "result": "190 to 193 °C"}
{"chemical.smiles": "CC(=O)N[C@H]1CC[C@H](CCN2CCN(c3cccc4c3CCC4)CC2)CC1", "result": "202 to 204 °C"}

----------
# key: entry, value: ED50
system: Male CD-1 mice; experiment: Inhibition of apomorphine induced climbing; type: in vivo; details: Mus musculus

{"molecule": "CCN(CC)C(=O)N[C@H]1CC[C@H](CCN2CCN(c3cccc4c3CCC4)CC2)CC1", "measurement.unit": "mg/kg", "ED50": 0.46}
{"molecule": "O=C1CCc2ccc(OCCCCN3CCN(c4cccc(Cl)c4Cl)CC3)cc2N1 [Aripiprazole, reference compound]", "measurement.unit": "mg/kg", "ED50": 1}
{"molecule": "CCC(=O)N[C@H]1CC[C@H](CCN2CCN(c3cccc4c3CCCC4)CC2)CC1", "measurement.unit": "mg/kg", "ED50": 0.35}
{"molecule": "CCNC(=O)N[C@H]1CC[C@H](CCN2CCN(c3cccc4c3CCC4)CC2)CC1", "measurement.unit": "mg/kg", "ED50": 0.47}
{"molecule": "CN(C)C(=O)N[C@H]1CC[C@H](CCN2CCN(c3cccc4c3CCCC4)CC2)CC1", "measurement.unit": "mg/kg", "ED50": 0.23}
{"molecule": "CN(C)C(=O)N[C@H]1CC[C@H](CCN2CCN(c3cccc4c3CCC4)CC2)CC1", "measurement.unit": "mg/kg", "ED50": 0.11}
{"molecule": "CC(=O)N[C@H]1CC[C@H](CCN2CCN(c3cccc4c3CCC4)CC2)CC1", "measurement.unit": "mg/kg", "ED50": 0.14}
{"molecule": "CCC(=O)N[C@H]1CC[C@H](CCN2CCN(c3cccc4c3CCC4)CC2)CC1", "measurement.unit": "mg/kg", "ED50": 0.21}
{"molecule": "O=C(N[C@H]1CC[C@H](CCN2CCN(c3cccc4c3CCC4)CC2)CC1)N1CCOCC1", "measurement.unit": "mg/kg", "ED50": 0.16}
{"molecule": "Cc1cc2c(s1)Nc1ccccc1N=C2N1CCN(C)CC1 [Olanzapine, reference compound]", "measurement.unit": "mg/kg", "ED50": 1.3}
{"molecule": "O=C(N[C@H]1CC[C@H](CCN2CCN(c3cccc4c3CCCC4)CC2)CC1)N1CCOCC1", "measurement.unit": "mg/kg", "ED50": 0.2}
{"molecule": "CC(=O)N[C@H]1CC[C@H](CCN2CCN(c3cccc4c3CCCC4)CC2)CC1", "measurement.unit": "mg/kg", "ED50": 0.26}
